Test: Pharmacokinetic study in mice
Assay type: in vivo
Conditions: mouse, po; male mice, p.o. (10 mg/kg), plasma
endpoint: log10(half-life) (log10 of the value in h)
Hello, just confirming the data are log10 of half-life with units of h.

Before answering, review these 5 worked examples.
{"columns": ["compound", "endpoint", "result"],
 "data": [
  ["Cn1c(=O)n(C2CCC(=O)NC2=O)c2cccc(N3CCN(CCN4CCC5(CC4)Cc4cc(NC(=O)c6cnn7cccnc67)c(N6CCC(CO)CC6)cc4O5)CC3)c21 (stereo not drawn)", "log10(half-life)", 0.44],
  ["Cn1c(=O)n(C2CCC(=O)NC2=O)c2cccc(C#CCO[C@H]3CC[C@@H](CN4CCC5(CC4)Cc4cc(NC(=O)c6cnn7cccnc67)c(N6CCC(CO)CC6)cc4O5)CC3)c21 (relative stereo)", "log10(half-life)", 0.53],
  ["Cn1c(=O)n(C2CCC(=O)NC2=O)c2cccc(N3CCN(C(=O)CN4CCC5(CC4)Cc4cc(NC(=O)c6cnn7cccnc67)c(N6CCC(CO)CC6)cc4O5)CC3)c21 (stereo not drawn)", "log10(half-life)", 0.36],
  ["Cc1cnc2c(C(=O)Nc3cc4c(cc3N3CCC(CO)CC3)OC3(CCN(C[C@H]5CC[C@H](OCC#Cc6cccc7c6n(C)c(=O)n7C6CCC(=O)NC6=O)CC5)CC3)C4)cnn2c1 (stereo partly drawn)", "log10(half-life)", 0.51],
  ["Cn1c(=O)n(C2CCC(=O)NC2=O)c2cccc(N3CCC(CN4CCC5(CC4)Cc4cc(NC(=O)c6cnn7cccnc67)c(N6CCC(CO)CC6)cc4O5)CC3)c21 (stereo not drawn)", "log10(half-life)", 0.82]
]}

Look up log10(half-life): Cn1c(=O)n(C2CCC(=O)NC2=O)c2cccc(CN3CCC(CCN4CCC5(CC4)Oc4cc(NC(=O)c6cnn7cccnc67)c(N6CCC(CO)CC6)cc4O5)CC3)c21 (stereo not drawn)
1.37

Now the compound Cn1c(=O)n(C2CCC(=O)NC2=O)c2cccc(C#CCO[C@H]3CC[C@H](CN4CCC5(CC4)Cc4cc(NC(=O)c6cnn7cc(Cl)cnc67)c(N6CCC(CO)CC6)cc4O5)CC3)c21 (stereo partly drawn)
0.60

Now the compound Cn1c(=O)n(C2CCC(=O)NC2=O)c2cccc(C#CCO[C@H]3CC[C@H](CN4CCC5(CC4)Cc4cc(NC(=O)c6cnn7cccnc67)c(N6CCC(C(C)(C)O)CC6)cc4O5)CC3)c21 (stereo partly drawn)
0.42

Now the compound Cn1nc(N2CCC(=O)NC2=O)c2cc(F)c(N3CCC(O)(CC(=O)N4CCC5(CC4)Cc4cc(NC(=O)c6cnn7cccnc67)c(N6CCC(CO)CC6)cc4O5)CC3)cc21
0.59

* * *

Biological target: IRAK4 protein (Homo sapiens, UniProt Q9NWZ3)
Test: IRAK4 Degradation Assay in THP-1 Cells (Western Blot)
Type: cell-based
Set-up: endogenous in cells; host or cells: THP-1 cells
Settings: THP-1 cells, 24 hours, 0.0128 to 1000 nM, IRAK4 protein level by Western Blot; read-out: DC50
endpoint: DC50 (nM)
# unit: nM | format: bare number

Before answering, review these 2 worked examples.
{"columns": ["compound", "result"],
 "data": [
  ["Cn1nc(N2CCC(=O)NC2=O)c2cccc(CN3CCC(CCN4CCC5(CC4)Cc4cc(NC(=O)c6coc7cccnc67)c(N6CCC(CO)CC6)cc4O5)CC3)c21", 7.34],
  ["Cn1c(=O)n(C2CCC(=O)NC2=O)c2cccc(C#CCO[C@H]3CC[C@H](CN4CCC5(CC4)Cc4cc(NC(=O)c6cnn7cc(C#N)cnc67)c(N6CCC(CO)CC6)cc4O5)CC3)c21 (stereo partly drawn)", 4.06]
]}

Now for another entry.
Look up DC50: Cn1c(=O)n(C2CCC(=O)NC2=O)c2cccc(CN3CCC(CCN4CCC5(CC4)Cc4cc(NC(=O)c6cnn7cccnc67)c(N6CCN(CC(F)F)CC6)cc4O5)CC3)c21 (stereo not drawn)
9.65

* * *

Assay: Pharmacokinetic study in mice
Assay type: in vivo
Conditions: male mice, p.o. (10 mg/kg), plasma
Reported Cmax is given for each of the following compounds.
# unit: ng/mL | format: bare number

Before answering, review these 3 worked examples.
{"columns": ["compound", "Cmax [ng/mL]"],
 "data": [
  ["Cn1c(=O)n(C2CCC(=O)NC2=O)c2cccc(C#CCO[C@H]3CC[C@H](CN4CCC5(CC4)Cc4cc(NC(=O)c6cnn7cccnc67)c(N6CCC(CO)CC6)cc4O5)CC3)c21 (relative stereo)", 1540],
  ["Cn1c(=O)n(C2CCC(=O)NC2=O)c2cccc(C#CCO[C@H]3CC[C@H](CN4CCC5(CC4)Cc4cc(NC(=O)c6cnn7cccnc67)c(N6CCC(O)CC6)cc4O5)CC3)c21 (stereo partly shown)", 3493],
  ["Cn1c(=O)n(C2CCC(=O)NC2=O)c2cccc(C#CCO[C@H]3CC[C@H](CN4CCC5(CC4)Cc4cc(NC(=O)c6cnn7cc(F)cnc67)c(N6CCC(CO)CC6)cc4O5)CC3)c21 (stereo partly shown)", 2277]
]}

Now for another entry.
Look up Cmax: Cn1c(=O)n(C2CCC(=O)NC2=O)c2cccc(C#CCO[C@H]3CC[C@H](CN4CCC5(CC4)Cc4cc(NC(=O)c6cnc7cccnn67)c(N6CCC(CO)CC6)cc4O5)CC3)c21 (stereo partly shown)
1190

* * *

Molecular target: IRAK4 protein (Homo sapiens)
Sequence (Q9NWZ3 1-460): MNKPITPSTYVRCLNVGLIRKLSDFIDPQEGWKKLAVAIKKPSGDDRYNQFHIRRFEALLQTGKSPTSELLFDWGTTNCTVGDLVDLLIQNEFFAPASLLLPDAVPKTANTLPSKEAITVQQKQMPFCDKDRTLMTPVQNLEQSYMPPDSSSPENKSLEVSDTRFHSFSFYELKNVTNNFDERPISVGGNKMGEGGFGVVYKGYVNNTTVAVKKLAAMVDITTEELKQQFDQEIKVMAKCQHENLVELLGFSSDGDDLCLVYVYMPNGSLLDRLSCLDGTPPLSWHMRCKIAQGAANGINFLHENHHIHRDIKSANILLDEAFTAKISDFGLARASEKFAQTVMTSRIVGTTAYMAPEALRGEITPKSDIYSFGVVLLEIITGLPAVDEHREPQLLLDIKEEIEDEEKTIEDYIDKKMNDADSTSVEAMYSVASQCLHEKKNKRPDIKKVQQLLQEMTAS
Test: IRAK4 Degradation Assay in THP-1 Cells (Western Blot)
Format: cell-based
Design: endogenous in cells; host or cells: THP-1 cells
Conditions: THP-1 cells, 24 hours, 0.0128 to 1000 nM, IRAK4 protein level by Western Blot; read-out: Dmax%
endpoint: Dmax (%)
# unit: % | format: bare number

Before answering, review these 5 worked examples.
{"columns": ["compound", "endpoint", "unit_abbrev", "result"],
 "data": [
  ["Cn1c(=O)n(C2CCC(=O)NC2=O)c2cccc(C#CCO[C@H]3CC[C@H](CN4CCC5(Cc6cc(NC(=O)c7cnn8cccnc78)c(N7CCC(CO)CC7)cc6O5)C4)CC3)c21 (stereo partly shown)", "Dmax", "%", 83.9],
  ["Cn1c(=O)n(C2CCC(=O)NC2=O)c2cccc(CN3CCC(CCN4CCC5(CC4)Cc4cc(NC(=O)c6coc7cccnc67)c(N6CCC(CO)CC6)cc4O5)CC3)c21 (stereo not shown)", "Dmax", "%", 93.5],
  ["Cn1c(=O)n(C2CCC(=O)NC2=O)c2cccc(C#CCO[C@H]3CC[C@H](CN4CCC5(CC4)Cc4cc(NC(=O)c6cnn7cc(Cl)cnc67)c(N6CCC(O)CC6)cc4O5)CC3)c21 (stereo partly shown)", "Dmax", "%", 86.2],
  ["Cn1c(=O)n(C2CCC(=O)NC2=O)c2cccc(C#CCO[C@H]3CC[C@H](CN4CCC5(CC4)Cc4cc(NC(=O)c6cnn7cc(CO)cnc67)c(N6CCC(CO)CC6)cc4O5)CC3)c21 (stereo partly shown)", "Dmax", "%", 87.1],
  ["Cn1c(=O)n(C2CCC(=O)NC2=O)c2cccc(C#CCO[C@H]3CC[C@@H](CN4CCC5(CC4)Cc4cc(NC(=O)c6coc7cccnc67)c(N6CCC(CO)CC6)cc4O5)CC3)c21 (stereo partly shown)", "Dmax", "%", 90.4]
]}

Now for another entry.
Look up Dmax: Cn1c(=O)n(C2CCC(=O)NC2=O)c2cccc(C#CCO[C@H]3CC[C@H](CN4CCC5(CC4)Cc4cc(NC(=O)c6cnn7cccnc67)c(N6CCC(O)CC6)cc4O5)CC3)c21 (stereo partly shown)
87

* * *

Biological target: IRAK4 protein (Homo sapiens, UniProt Q9NWZ3)
Test: IRAK4 Degradation Assay in THP-1 Cells (Western Blot)
Format: cell-based
Design: endogenous in cells; host or cells: THP-1 cells
Details: THP-1 cells, 24 hours, 0.0128 to 1000 nM, IRAK4 protein level by Western Blot; read-out: DC50
Method: In a 6-well cell culture plate, an appropriate number of THP-1 cells were seeded. The plate was placed in a 5% CO2 incubator at 37°C for overnight culture. Then, the test compound's dimethyl sulfoxide solution was added, with the final concentration ranging from 0.0128 to 1000 nM. After continuous culture for 24 hours, the culture medium was removed, and the cells were collected in a 1.5 mL centrifuge tube. […] The supernatant was taken, and the level of IRAK4 protein was detected by Western Blot.
I'd appreciate it if you marked entries MET when DC50 is lower than 3 nM and NOT MET when it is not.

Worked cases, answers included:
{"columns": ["molecule", "tested_system", "answer_label"],
 "data": [
  ["Cn1c(=O)n(C2CCC(=O)NC2=O)c2cccc(C#CCO[C@H]3CC[C@H](CN4CCC5(CC4)Cc4cc(NC(=O)c6cnn7cc(F)cnc67)c(N6CCC(CO)CC6)cc4O5)CC3)c21 (stereo partly shown) [Compound 38]", "IRAK4 protein (Homo sapiens, UniProt Q9NWZ3)", "MET"],
  ["Cn1c(=O)n(C2CCC(=O)NC2=O)c2cccc(C#CCO[C@H]3CC[C@H](CN4CCC5(CC4)Cc4cc(NC(=O)c6cnn7cc(CO)cnc67)c(N6CCC(CO)CC6)cc4O5)CC3)c21 (stereo partly shown) [Example 90]", "IRAK4 protein (Homo sapiens, UniProt Q9NWZ3)", "MET"],
  ["Cn1c(=O)n(C2CCC(=O)NC2=O)c2cccc(C#CCOC3CCN(CCN4CCC5(CC4)Oc4cc(NC(=O)c6cnn7cccnc67)c(N6CCC(CO)CC6)cc4O5)CC3)c21 (stereo not shown) [Compound 28]", "IRAK4 protein (Homo sapiens, UniProt Q9NWZ3)", "NOT MET"],
  ["Cc1cc(-c2nc(C(=O)Nc3cc4c(cc3N3CCC(CO)CC3)OC3(CCN(C[C@H]5CC[C@H](OCC#Cc6cccc7c6n(C)c(=O)n7C6CCC(=O)NC6=O)CC5)CC3)C4)co2)ccn1 (stereo partly shown) [Example 89]", "IRAK4 protein (Homo sapiens, UniProt Q9NWZ3)", "NOT MET"],
  ["O=C1CCC(N2C(=O)c3cc(F)c(N4CCC(CCN5CCC6(CC5)Cc5cc(NC(=O)c7cnn8cccnc78)c(N7CCC(CO)CC7)cc5O6)CC4)cc3C2=O)C(=O)N1 (stereo not shown) [Compound 72]", "IRAK4 protein (Homo sapiens, UniProt Q9NWZ3)", "NOT MET"]
]}

Here's the next entry for you.
# check: DC50 < 3 nM for Cn1c(=O)n(C2CCC(=O)NC2=O)c2cccc(N3CCC(CCN4CCC5(CC4)Cc4cc(NC(=O)c6cnn7cccnc67)c(N6CCC(CO)CC6)cc4O5)CC3)c21 (stereo not shown) [Example 96]
MET
